Target: human OX2 receptor (Homo sapiens, UniProt O43614)
Construct: expressed in transfected cells
Sequence (O43614 whole entry): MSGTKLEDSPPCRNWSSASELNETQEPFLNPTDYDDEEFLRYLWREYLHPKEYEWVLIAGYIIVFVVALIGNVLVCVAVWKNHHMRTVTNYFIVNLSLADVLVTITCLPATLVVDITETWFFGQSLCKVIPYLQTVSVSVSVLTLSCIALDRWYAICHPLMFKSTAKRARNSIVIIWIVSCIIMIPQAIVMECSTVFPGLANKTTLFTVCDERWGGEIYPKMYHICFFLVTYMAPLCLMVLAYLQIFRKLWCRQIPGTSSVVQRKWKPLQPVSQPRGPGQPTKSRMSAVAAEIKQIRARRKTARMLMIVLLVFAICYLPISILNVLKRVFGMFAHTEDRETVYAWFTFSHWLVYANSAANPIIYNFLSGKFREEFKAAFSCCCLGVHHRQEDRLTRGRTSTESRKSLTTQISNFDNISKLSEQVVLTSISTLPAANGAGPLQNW
Experiment: Measurement of orexin type 2 receptor agonist activity (calcium fluorescence, Fluo-4 AM, FDSS)
Assay type: cell-based
Conditions: compound at 3 μM; CHO cells forcibly expressing human OX2 receptor; DMSO = 0%, 10 nM orexin A (human) = 100%
Text: In order to obtain cell clones that stably express human orexin type 2 receptor, human orexin type 2 (residues 1-444, NCBI Reference Sequence: AK314279) was constructed in a pcDNA3.1 (+) vector (Invitrogen) to express in mammalian cells. This plasmid DNA was transfected into CHO-K1 cells by electroporation, and stable clones were obtained by limiting dilution using resistance to G418 as a selection marker. […]
MEASURE: OX2R agonist activity (3 μM, %)

>>> print(df.to_string())
                                   molecule  endpoint_result
0  C[C@@]1(c2ncc(F)cc2-c2c(F)cccc2F)CC(N2C[C@@H](NS(C)(=O)=O)C(F)(F)C2)=NO1              100
1  Cc1cnc(C2CC([C@@H]3CC[C@H](NS(C)(=O)=O)C3)=NO2)c(-c2c(F)cc(F)cc2F)c1 (stereo partly shown)               92
2  Cc1cnc([C@@H]2CC(N3C[C@@H](NS(C)(=O)=O)[C@@](C)(F)C3)=NO2)c(-c2c(F)cc(F)cc2F)c1 (single isomer, unassigned)              105
3  CS(=O)(=O)N[C@H]1CCN(C2=NOC(c3ccccc3-c3c(F)cccc3F)C2)C1 (stereo partly shown)              103
4  CC1(c2ncc(F)cc2-c2c(F)cccc2F)CC(N2C[C@@H](NS(C)(=O)=O)C(F)(F)C2)=NO1 (stereo partly shown)              100
5  CS(=O)(=O)N[C@@H]1CN(C2=NO[C@](CF)(c3ncc(F)cc3-c3c(F)cccc3F)C2)CC1(F)F              101
6  CC1(c2ncc(Cl)cc2-c2ncc(F)cc2F)CC(N2C[C@@H](NS(C)(=O)=O)C(F)(F)C2)=NO1 (stereo partly shown)              107

###

molecular target: human OX2 receptor (Homo sapiens, UniProt O43614); construct: expressed in transfected cells; experiment: Measurement of orexin type 2 receptor agonist activity (calcium fluorescence, Fluo-4 AM, FDSS); type: cell-based; settings: compound at 3 μM; CHO cells forcibly expressing human OX2 receptor; DMSO = 0%, 10 nM orexin A (human) = 100%
MEASURE: OX2R agonist activity (3 μM, %)

                                   compound  unit_symbol  endpoint_result
0  Cc1cnc(C2(CF)CC(N3C[C@H](F)[C@H](NS(C)(=O)=O)C3)=NO2)c(-c2c(F)cc(F)cc2F)c1 (stereo partly drawn)            %              100
1  CS(=O)(=O)N[C@@H]1CN(C2=NOC(c3ncc(Br)cc3-c3c(F)cc(F)cc3F)C2)CC1(F)F (stereo partly drawn)            %              103
2  Cc1cnc([C@@H]2CC(N3C[C@@H](NS(C)(=O)=O)[C@@](C)(F)C3)=NO2)c(-c2c(F)cccc2F)c1 (mixture of isomers)            %               99
3  CS(=O)(=O)N[C@@H]1CN(C2=NOC(c3ncc(Br)cc3-c3c(F)cc(F)cc3F)C2)C[C@@H]1F (stereo partly drawn)            %               99
4  O=S(=O)(CF)N[C@H]1CCN(C2=NOC(c3ncc(Cl)cc3-c3c(F)cccc3F)C2)C1 (stereo partly drawn)            %               98
5  CS(=O)(=O)N[C@@H]1CN(C2=NOC(c3c(F)cc(F)cc3-c3c(F)cccc3F)C2)CC1(F)F (stereo partly drawn)            %               94
6  CS(=O)(=O)N[C@H]1CCCN(C2=NOC(c3ccccc3-c3c(F)cccc3F)C2)CC1 (stereo partly drawn)            %              106
7  CS(=O)(=O)N[C@@H]1CN(C2=NOC(c3c(F)cc(F)cc3-c3ncc(F)cc3F)C2)CC1(F)F (stereo partly drawn)            %              105
8  CCS(=O)(=O)N[C@@H]1CN(C2=NO[C@H](c3ncc(Br)cc3-c3c(F)cc(F)cc3F)C2)CC1(F)F            %              103

###

target: human OX2 receptor (Homo sapiens); construct: expressed in transfected cells; assay: Measurement of orexin type 2 receptor agonist activity (calcium fluorescence, Fluo-4 AM, FDSS); format: cell-based; settings: compound at 3 μM; CHO cells forcibly expressing human OX2 receptor; DMSO = 0%, 10 nM orexin A (human) = 100%
MEASURE: OX2R agonist activity (3 μM, %)

In [3]: df
Out[3]:
                                   compound  endpoint_result
0  Cc1ccc(C2CC(N3C[C@@H](NS(C)(=O)=O)C(F)(F)C3)=NO2)c(-c2ncc(F)cc2F)c1 (stereo partly drawn)              108
1  Cc1cc(F)c(C2CC(N3C[C@@H](NS(C)(=O)=O)C(F)(F)C3)=NO2)c(-c2c(F)cccc2F)c1 (stereo partly drawn)              102
2  Cc1cnc([C@@H]2CC(N3CC[C@H](NS(C)(=O)=O)C3)=NO2)c(-c2c(F)cccc2F)c1               96
3  Cc1cnc(C2CC(N3CC(F)(F)C3CNS(C)(=O)=O)=NO2)c(-c2c(F)cc(F)cc2F)c1 (stereo not drawn)               80
4  Cc1cnc([C@@H]2CC(N3C[C@@H](NS(C)(=O)=O)C(F)(F)C3)=NO2)c(-c2c(F)cc(F)cc2F)c1               96
5  Cc1ccc(C2(C)CC(N3C[C@@H](NS(C)(=O)=O)C(F)(F)C3)=NO2)c(-c2ncc(F)cc2F)c1 (stereo partly drawn)              103

###

biological target: human OX2 receptor (Homo sapiens, UniProt O43614); construct: expressed in transfected cells; assay: Measurement of orexin type 2 receptor agonist activity (calcium fluorescence, Fluo-4 AM, FDSS); assay type: cell-based; conditions: compound at 3 μM; CHO cells forcibly expressing human OX2 receptor; DMSO = 0%, 10 nM orexin A (human) = 100%
MEASURE: OX2R agonist activity (3 μM, %)

>>> df
                                    molecule  endpoint_result
 0  Cc1cnc([C@@H]2CC(N3C[C@H](F)[C@H](NS(C)(=O)=O)C3)=NO2)c(-c2c(F)cccc2F)c1               98
 1  CS(=O)(=O)N[C@@H]1CN(C2=NOC(c3c(F)cc(F)cc3-c3c(F)cccc3F)C2)C[C@@H]1F (some centres unmarked)               98
 2  CS(=O)(=O)N[C@@H]1CN(C2=NOC(CF)(c3ncc(Cl)cc3-c3c(F)cccc3F)C2)C[C@@H]1F (some centres unmarked)              102
 3  Cc1cnc([C@@H]2CC(N3C[C@@H](F)[C@H](NS(C)(=O)=O)C3)=NO2)c(-c2c(F)cccc2F)c1               95
 4  Cc1cnc(C2(C)CC(N3C[C@H](F)[C@H](NS(C)(=O)=O)C3)=NO2)c(-c2c(F)cccc2F)c1 (some centres unmarked)               99
 5  CS(=O)(=O)N[C@@H]1CN(C2=NOC(CF)(c3ncc(C(F)F)cc3-c3c(F)cccc3F)C2)CC1(F)F (some centres unmarked)               96
 6  Cc1cnc(C2(CF)CC(N3C[C@@H](NS(C)(=O)=O)C(F)(F)C3)=NO2)c(-c2c(F)cccc2F)n1 (some centres unmarked)              102
 7  C[C@]1(F)CN(C2=NOC(c3c(F)cccc3-c3c(F)cccc3F)C2)C[C@H]1NS(C)(=O)=O (single isomer, unassigned)               99
 8  CS(=O)(=O)N[C@@H]1CN(C2=NOC(CO)(c3ncc(F)cc3-c3c(F)cc(F)cc3F)C2)CC1(F)F (some centres unmarked)               92
 9  Cc1cnc([C@@H]2CC(N3CC[C@H](NS(=O)(=O)C(F)F)C3)=NO2)c(-c2c(F)cc(F)cc2F)c1               99
10  CS(=O)(=O)N[C@@H]1CN(C2=NOC(c3ncc(C(F)F)cc3-c3c(F)cc(F)cc3F)C2)CC1(F)F (some centres unmarked)              107

The origin of these recorded values is patent US20240217957A1.
